ASSAY_NAME: Drug metabolism in human liver microsomes assessed as UGT-mediated compound glucuronidation per mg protein in presence of microsomal activator Brij58 and cofactor UDPGA
Format: ADME
MEASURE: Drug metabolism

MOLECULE | Drug metabolism
C[C@@H]1CCN(C(=O)N2CC[C@@H](S(=O)(=O)c3cccc(O)c3)C2)C[C@@H]1N(C)c1ncnc2[nH]ccc12 | > 200 µL/min
CCc1cc(O)c(F)cc1-c1ccc2c(-c3nc4c([nH]3)CN(Cc3ccccc3)CC4)n[nH]c2c1 | > 360 µL/min

Kindly consider the entry below.
Recorded Drug metabolism (molecule CCc1cc(O)ccc1-c1ccc2c(-c3nc4c([nH]3)CN(C)CC4)n[nH]c2c1 ): < 1.9 µL/min
